Each recorded value in this set is attributed to patent US12661410B2.

Parameter DC50: see the listing below.
target: RET(KD: 658-1114 G810R) (Homo sapiens, UniProt P07949, G810R); construct: 658-1114; expressed in transfected cells; host or cells: 293T.165 (293T cells, generated in-house); test: HiBiT-Degradation, RET G810R degradation assay (Nano-Glo HiBiT Lytic), 293T.165 cells; format: cell-based; settings: 6.0 hours, half-maximal degradation concentration, read-out: 293T.165 RET(KD: 658-1114 G810R) 6.0 hours (DC50)
Sequence (P07949 658-1114 G810R): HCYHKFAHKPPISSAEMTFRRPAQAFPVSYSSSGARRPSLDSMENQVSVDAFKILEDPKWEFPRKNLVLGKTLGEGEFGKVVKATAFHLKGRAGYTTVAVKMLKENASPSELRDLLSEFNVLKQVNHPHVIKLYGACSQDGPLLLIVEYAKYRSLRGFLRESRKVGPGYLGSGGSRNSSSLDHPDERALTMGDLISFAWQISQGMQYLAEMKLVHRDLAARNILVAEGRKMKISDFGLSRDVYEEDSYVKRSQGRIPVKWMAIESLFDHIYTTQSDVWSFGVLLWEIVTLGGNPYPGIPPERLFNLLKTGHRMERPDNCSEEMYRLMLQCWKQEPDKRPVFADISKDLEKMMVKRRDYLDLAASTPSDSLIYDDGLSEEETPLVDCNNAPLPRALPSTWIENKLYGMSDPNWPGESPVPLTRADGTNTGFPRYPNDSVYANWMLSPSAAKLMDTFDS

Field: example entries. Status: answers known.
{"Molecule": "CC(C)NC(=O)C1(C)CCN(c2ccc(-c3cc(-c4ccc(N5CCN(C(=O)CC6(O)CCN(c7ccc(CN8CCC(=O)NC8=O)cc7)CC6)CC5)cc4)cn4ncc(C#N)c34)cn2)CC1", "Subject Of Test": "RET(KD: 658-1114 G810R) (Homo sapiens, UniProt P07949, G810R)", "Value Type": "DC50", "Data Value": "> 1000 nM"}
{"Molecule": "CCC1(C(=O)NC(C)C)CCN(c2ccc(-c3cc(-c4cnn(C5CCN(C(=O)CN6CCC(c7ccc(NC8CCC(=O)NC8=O)cc7F)CC6)CC5)c4)cn4ncc(C#N)c34)cn2)CC1 (stereo not drawn)", "Subject Of Test": "RET(KD: 658-1114 G810R) (Homo sapiens, UniProt P07949, G810R)", "Value Type": "DC50", "Data Value": "< 50 nM"}
{"Molecule": "CCC1(C(=O)NC2CCC2)CCN(c2ccc(-c3cc(-c4cnn(C5CCN(C(=O)CN6CCC(c7ccc(NC8CCC(=O)NC8=O)cc7F)CC6)CC5)c4)cn4ncc(C#N)c34)cn2)CC1 (stereo not drawn)", "Subject Of Test": "RET(KD: 658-1114 G810R) (Homo sapiens, UniProt P07949, G810R)", "Value Type": "DC50", "Data Value": "< 50 nM"}
{"Molecule": "COc1ccc(CN2C3COCC2CN(c2ccc(-c4nc(-c5cnn([C@H]6CC[C@H](N7CCN(c8cc(F)c(NC9CCC(=O)NC9=O)cc8F)CC7)CC6)c5)cn5ncc(C#N)c45)cn2)C3)cn1 (relative stereo)", "Subject Of Test": "RET(KD: 658-1114 G810R) (Homo sapiens, UniProt P07949, G810R)", "Value Type": "DC50", "Data Value": "< 100 nM"}
{"Molecule": "COc1cc(N2CCN([C@H]3CC[C@H](n4cc(-c5cn6ncc(C#N)c6c(-c6ccc(N7C[C@H]8COC[C@@H](C7)N8Cc7ccc(F)cc7)nc6)n5)cn4)CC3)CC2)c(F)cc1NC1CCC(=O)NC1=O (relative stereo)", "Subject Of Test": "RET(KD: 658-1114 G810R) (Homo sapiens, UniProt P07949, G810R)", "Value Type": "DC50", "Data Value": "< 100 nM"}

Task item: Look up DC50 for this molecule: N#Cc1cnn2cc(-c3ccc(N4CCN(C(=O)CN5CCC(c6ccc(NC7CCC(=O)NC7=O)cc6)CC5)CC4)cc3)cc(-c3ccc(N4CCC(Nc5ccccc5)CC4)nc3)c12 (stereo not drawn)
Reply: < 100 nM

Task item: Next up: CC(C)NC(=O)C1(C)CCN(c2ccc(-c3cc(-c4cnn(CCCCCCN5CCC(c6ccc7c(N8CCC(=O)NC8=O)nn(C)c7c6)CC5)c4)cn4ncc(C#N)c34)cn2)CC1
Reply: < 100 nM

Task item: Input N#Cc1cnn2cc(-c3cnn([C@H]4CC[C@@H](N5CCN(c6ccc(N[C@H]7CCC(=O)NC7=O)cc6F)CC5)CC4)c3)nc(-c3ccc(N4CC5CC(C4)N5C(=O)c4c(F)cccc4F)nc3)c12 (single isomer, unassigned)
Reply: < 50 nM

Task item: What do you have for CCC1(C(=O)NC(C)C)CCN(c2ccc(-c3cc(-c4cnn(C5CCN(C(=O)CC6(O)CCN(c7ccc(NC8CCC(=O)NC8=O)cc7F)CC6)CC5)c4)cn4ncc(C#N)c34)cn2)CC1 (stereo not drawn) ?
Reply: < 50 nM
